Ref: the Kinase Knowledgebase extract (Sharma et al. 2016)

# target-under-test: MAPK14 (human) (UniProt Q16539)
# Sequence (Q16539 whole entry, looked up): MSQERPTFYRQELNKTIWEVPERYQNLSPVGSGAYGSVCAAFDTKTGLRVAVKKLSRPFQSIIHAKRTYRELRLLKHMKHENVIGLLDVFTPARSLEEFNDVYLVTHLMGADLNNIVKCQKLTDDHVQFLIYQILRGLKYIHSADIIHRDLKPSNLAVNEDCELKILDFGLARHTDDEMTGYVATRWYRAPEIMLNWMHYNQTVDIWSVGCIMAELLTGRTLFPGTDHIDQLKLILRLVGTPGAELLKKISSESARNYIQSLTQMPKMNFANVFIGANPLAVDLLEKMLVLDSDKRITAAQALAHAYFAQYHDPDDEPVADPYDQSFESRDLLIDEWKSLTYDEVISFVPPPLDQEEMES
# assay-summary: Inhibition of MAPK14 Kinase Activity by PHAS-I Assay
# stated-conditions: concentration not given here
measurement-kind: inhibition (%)

Cc1c(-c2ccncc2)c(-c2ccc(F)cc2)nn1CC(=O)N(C)CCN1CCOCC1 = 32

A = CCOC(=O)COc1cccc(NC(=O)Cn2nc(-c3ccc(F)cc3)c(-c3ccncc3)c2C)c1
B = COCC(=O)NCCc1[nH]nc(-c2ccc(F)cc2)c1-c1ccncc1
Query block: Pick the one with the larger inhibition: A vs B Lab log: write the label of the selected item as the result.
Result block: A
(A: 83%, B: 55%)

a = O=C(NCCc1[nH]nc(-c2ccc(F)cc2)c1-c1ccncc1)[C@H]1CCCN1
b = CCC(=O)C(=O)CNC(=O)NCc1[nH]nc(-c2ccc(F)cc2)c1-c1ccncc1
c = Cc1c(-c2ccncc2)c(-c2ccc(F)cc2)nn1CC(=O)N1CCCCC1CCN1CCCCC1 (stereo not drawn)
Query block: Rank entries according to their inhibition, from the largest number down. // list labels; follow requested order
Result block: a, b, c

1 = Cc1c(-c2ccncc2)c(-c2ccc(F)cc2)nn1CC(=O)NC1CCN(CCc2c[nH]c3ccccc23)CC1
2 = Cc1c(-c2ccncc2)c(-c2ccc(F)cc2)nn1CC(=O)N(Cc1ccco1)CC(C)C
Query block: Identify the item whose inhibition is the smaller number: 1 or 2 Lab log: write the label of the selected item as the result.
Result block: 2

A = O=C(NCCc1[nH]nc(-c2ccc(F)cc2)c1-c1ccncc1)Nc1cccc(Cl)c1Cl
B = CCN(Cc1c(F)cccc1Cl)C(=O)Cn1nc(-c2ccc(F)cc2)c(-c2ccncc2)c1C
Query block: Identify the item whose inhibition is the smaller number: A or B Lab log: write the label of the selected item as the result.
Result block: B

----------
# target-under-test: MAPK14 (human) (UniProt Q16539)
# assay-summary: Inhibition of LPS Stimulated TNF Production by U937 Cells
# stated-conditions: concentration not given here
measurement-kind: inhibition (%)

Below: 2 compounds and their reported inhibition.
C[C@@H](NC(=O)c1cccc(F)c1)c1[nH]nc(-c2ccc(F)cc2)c1-c1ccncc1 = 52
O=C(NCCc1[nH]nc(-c2ccc(F)cc2)c1-c1ccncc1)Nc1ccc(-c2ccccc2)cc1 = 26

P = C[C@@H](NS(=O)(=O)c1c(Cl)cccc1Cl)c1[nH]nc(-c2ccc(F)cc2)c1-c1ccncc1
Q = CC(C)(C)C(=O)N[C@@H](Cc1ccccc1)c1[nH]nc(-c2ccc(F)cc2)c1-c1ccncc1
Query block: Pick the one with the larger inhibition: P vs Q Lab log: write the label of the selected item as the result.
Result block: P

----------
# target-under-test: MAPK14 (human)
# assay-summary: Inhibition of MAPK14 Kinase Activity by PHAS-I Assay
# stated-conditions: concentration not given here
measurement-kind: inhibition (%)

O=C(NCCc1[nH]nc(-c2ccc(F)cc2)c1-c1ccncc1)N1CCOCC1 = 86
O=C(NCc1[nH]nc(-c2ccc(F)cc2)c1-c1ccncc1)c1cccc(CCl)c1 = 83
CSc1cccc(NC(=O)NCCc2[nH]nc(-c3ccc(F)cc3)c2-c2ccncc2)c1 = 47
NC(=O)NCCc1[nH]nc(-c2ccc(F)cc2)c1-c1ccncc1 = 76
O=C(NCCCc1[nH]nc(-c2ccc(F)cc2)c1-c1ccncc1)c1ccccn1 = 69

I = N/C(=C(\N)S(=O)(=O)NCc1[nH]nc(-c2ccc(F)cc2)c1-c1ccncc1)c1ccccc1
II = O=C(NCCc1[nH]nc(-c2ccc(F)cc2)c1-c1ccncc1)c1ccccc1C(F)(F)F
Query block: Identify the item whose inhibition is the smaller number: I or II Lab log: write the label of the selected item as the result.
Result block: II
